target: GABA A receptor α5β3γ2 (Homo sapiens, UniProt P18507+P31644); construct: expressed in transfected cells; host or cells: HEK293 (transiently transfected for the human receptors); test: [3H]flumazenil competition binding, human GABA A α5β3γ2 receptors expressed in HEK293 cells

smilesEntry: Cc1onc(-c2cccc(F)c2)c1C(=O)c1cn(C)c2cc(C(=O)NC3CCOCC3)ccc12
Ki (µM): 0.049
//
smilesEntry: C#CCNC(=O)c1ccc2c(C(=O)c3c(-c4cccc(F)c4)noc3C)cn(C)c2c1
Ki (µM): 0.0383
//
smilesEntry: Cc1onc(-c2cccc(F)c2)c1C(=O)c1cn(-c2ccccc2)c2cc(C(=O)NC3CCCC3)ccc12
Ki (µM): 0.0402
//
smilesEntry: Cc1onc(-c2cccc(F)c2)c1C(=O)c1cn(C)c2cc(C(=O)NCC3CC3)ccc12
Ki (µM): 0.0667
//
smilesEntry: Cc1onc(-c2cccc(F)c2)c1C(=O)c1cn(C)c2cc(C(=O)NCc3ccco3)ccc12
Ki (µM): 0.0769
//
smilesEntry: Cc1onc(-c2cccc(F)c2)c1C(=O)c1cn(C)c2cc(C(=O)NCCN3CCOCC3)ccc12
Ki (µM): 0.0249
